Numbers sourced from patent US20160355587A1.

- MEASURED_ON: T1, human CD166 protein (human, UniProt Q13740 28-526, limits assumed)
- T1 construct: Isolated human CD166 protein coated on ELISA plates; also called ALCAM
- T1 sequence (looked up): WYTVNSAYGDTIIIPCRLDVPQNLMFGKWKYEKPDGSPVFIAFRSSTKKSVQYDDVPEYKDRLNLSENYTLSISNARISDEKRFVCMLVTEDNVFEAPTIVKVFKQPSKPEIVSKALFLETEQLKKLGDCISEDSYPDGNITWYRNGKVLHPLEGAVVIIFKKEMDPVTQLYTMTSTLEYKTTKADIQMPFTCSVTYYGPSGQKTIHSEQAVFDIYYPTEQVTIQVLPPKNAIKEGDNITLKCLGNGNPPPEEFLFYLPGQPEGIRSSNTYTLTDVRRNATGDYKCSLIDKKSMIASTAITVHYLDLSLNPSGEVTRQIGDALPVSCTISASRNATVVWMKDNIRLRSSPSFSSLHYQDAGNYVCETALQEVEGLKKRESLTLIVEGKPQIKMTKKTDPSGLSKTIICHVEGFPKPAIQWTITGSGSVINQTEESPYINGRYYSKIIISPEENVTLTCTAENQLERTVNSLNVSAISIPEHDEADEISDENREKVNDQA
- TEST_DETAILS: ELISA, human CD166 protein coated; apparent Kd
Measured Kd by item
Could you give me the number in nM? Just the number is fine.

Here are 2 binders together with their reported answers.
BINDER	ENDPOINT_LABEL	MEASURED_NUMBER
CD166-16522-2001 (antibody) chain 1: QITLKESGPTLVKPTQTLTLTCTFSGFSLSTYGMGVGWIRQPPGKALEWLANIWWSEDKHYSPSLKSRLTITKDTSKNQVVLTMTNMDPVDTATYYCVQIDYGNDYAFTYWGQGTLVTVSS chain 2: QGQSGQGLEGWCLHPLCLWGAGGGGSSGGSISSGLLSGRSDNHGGGSDIVMTQSPLSLPVTPGEPASISCRSSKSLLHSNGITYLYWYLQKPGQSPQLLIYQMSNLASGVPDRFSGSGSGTDFTLKISRVEAEDVGVYYCAQNLELPYTFGQGTKLEIK	Kd	424
CD166-16522.15-2001 (antibody) chain 1: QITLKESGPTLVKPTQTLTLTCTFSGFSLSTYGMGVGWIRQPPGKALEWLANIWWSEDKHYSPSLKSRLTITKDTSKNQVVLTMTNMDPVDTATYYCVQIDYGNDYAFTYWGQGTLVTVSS chain 2: QGQSGQGLEGWCAHPLCLWGAGGGGSSGGSISSGLLSGRSDNHGGGSDIVMTQSPLSLPVTPGEPASISCRSSKSLLHSNGITYLYWYLQKPGQSPQLLIYQMSNLASGVPDRFSGSGSGTDFTLKISRVEAEDVGVYYCAQNLELPYTFGQGTKLEIK	Kd	448

# next binder below
[in] Determine its reported Kd: CD166-16522.16-2001 (antibody) chain 1: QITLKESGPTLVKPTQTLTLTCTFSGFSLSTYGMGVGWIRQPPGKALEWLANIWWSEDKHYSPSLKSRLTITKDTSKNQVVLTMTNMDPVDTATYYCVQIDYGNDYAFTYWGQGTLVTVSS chain 2: QGQSGQGLEGWCLAPLCLWGAGGGGSSGGSISSGLLSGRSDNHGGGSDIVMTQSPLSLPVTPGEPASISCRSSKSLLHSNGITYLYWYLQKPGQSPQLLIYQMSNLASGVPDRFSGSGSGTDFTLKISRVEAEDVGVYYCAQNLELPYTFGQGTKLEIK
[out] 47.4
